- System: OVCAR-3 ovarian
- assayComment: NCI-60 one-dose screen, 48 h (100 = growth as untreated, 0 = no growth, -100 = all killed)
- particulars: 10 µM unless noted
This is part of a sample that, as a whole, favours compounds with a hit. Of some 83,000 tested, about 20% had one in any assay.
Below is a list of entries, each paired with its recorded growth value.
Respond numerically; units are % and should not be typed.

Completed entries (count: 5):
NC(=O)C(O)(c1ccccc1)c1ccccc1 ... -48.6
Cc1c(Cl)cccc1NC(=O)c1sc2nc3c(cc2c1N)COCC3 ... 17.8
CC1CCN(CCCCCOc2ccc3oc4cc(Cl)ccc4c(=O)c3c2)CC1 ... 73.3
COc1ccc(/C(=N\O)c2cc(C)c(OC)c(C)c2)cc1O ... 10.1
COc1ccc2[nH]c(=O)c(/C=C/C(=O)c3ccccc3OC)cc2c1 ... 8.25

Query string: What does the data say about its growth? Entry: `C#C[C@@]1(O)[C@@H](CO)O[C@@H](n2cc(Cl)c3c(N)ncnc32)[C@@H]1O`
Result string: -10.1

Query string: What does the data say about its growth? Entry: `CC(C)CSc1nc(Nc2ccccc2)c(C#N)c(-c2ccc(F)cc2)n1`
Result string: -33.2

Query string: What does the data say about its growth? Entry: `O=C(CN1N=C(c2ccc(F)cc2)CCC1=O)Nc1nccs1`
Result string: 113

Query string: What does the data say about its growth? Entry: `C=C1C(=O)O[C@H]2[C@H]1CC/C(COC(=O)/C=C/c1cccnc1)=C\CC[C@@]1(C)O[C@@H]21`
Result string: -6.31

Query string: What does the data say about its growth? Entry: `COC(=O)/C=C1\SC(=Nc2cccc(Cl)c2)N(CCc2c[nH]c3ccccc23)C1=O`
Result string: 33.3

Query string: What does the data say about its growth? Entry: `COc1ccccc1Nc1nnc(-c2ccc(Cl)cc2)o1`
Result string: 8.06

Query string: What does the data say about its growth? Entry: `Nc1c(C(=O)Nc2cccc3ccccc23)sc2nc3c(cc12)CCCCCC3`
Result string: -36.8

Query string: What does the data say about its growth? Entry: `NCCCn1c2c(c3cc(-c4ccn[nH]4)ccc3c1=O)C(=O)c1ccccc1-2`
Result string: 59

Query string: What does the data say about its growth? Entry: `N#Cc1ccc(N2Cc3cc(Cl)ccc3OC3=C2C(=O)N(Cc2ccc(F)cc2)C3=O)cc1`
Result string: -89

Query string: What does the data say about its growth? Entry: CC(=O)Nc1c(C(=O)Nc2ccccc2)sc2nc3c(cc12)C(OC(C)=O)CCC3 (stereo not drawn)
Result string: 104

Query string: What does the data say about its growth? Entry: `CN1C(=O)c2cc(Cl)nc3c(NC(=O)c4cccc(Cl)c4)c(Cl)c(NC(=O)c4cccc(Cl)c4)c1c23`
Result string: -52.7

Query string: What does the data say about its growth? Entry: CCCS(=O)(=O)Nc1ccc(F)c(C(=O)c2c[nH]c3ncc(-c4ccc(OCCCC5CCCCN5)nc4)cc23)c1F (stereo not drawn)
Result string: 89.6

Query string: What does the data say about its growth? Entry: `Cc1ccc2nc3nc4ccc[nH]c4cc3c2c1`
Result string: 77.6

Query string: What does the data say about its growth? Entry: `O=C(Nc1nc2ccc(C(F)(F)F)cc2s1)c1cc(Cl)ccc1O`
Result string: 8.08

Query string: What does the data say about its growth? Entry: Cc1ccc(SC2c3ccc(C)cc3Oc3nc(N)c(C#N)c(N)c32)cc1 (stereo not drawn)
Result string: 55.2

Query string: What does the data say about its growth? Entry: `CCCCn1c2cc(OCc3cn(-c4ccc(Cl)cc4)nn3)ccc2c2ccnc(C)c21`
Result string: 30.1

Query string: What does the data say about its growth? Entry: `CCOC(=O)c1ccc(Nc2ncnc3ccc(NC(=O)c4ccccc4)cc23)cc1`
Result string: 94.4

Query string: What does the data say about its growth? Entry: `Cc1[nH]c2ncnc(Oc3ccc(NC(=O)Nc4ccc(Cl)c(C(F)(F)F)c4)cc3)c2c1C`
Result string: 56.3

Query string: What does the data say about its growth? Entry: `Cc1cc(C)c2nc(Nc3nc(C)c(C)c(=O)[nH]3)nc(C)c2c1`
Result string: 5.78

Query string: What does the data say about its growth? Entry: `N#Cc1c(-c2ccc(F)cc2)nc(N=Nc2c(O)[nH]c3ccc(Cl)cc23)nc1N1CCOCC1`
Result string: 21.6

====

- Test system: NCI/ADR-RES ovarian
- assayComment: NCI-60 one-dose screen, 48 h (100 = growth as untreated, 0 = no growth, -100 = all killed)
- particulars: 10 µM unless noted
The panel holds about 83,000 compounds, 20% with a hit somewhere; the sample as a whole holds those more often.
quantityMeasured: growth (%)
Respond numerically; units are % and should not be typed.

Completed entries (count: 3):
COC1=CC2C=C(C3N(c4ccccc4)NC(=O)[C@@H]4CCCN34)C(=O)NC2C=C1 (some centres undefined) ... 101
CCCCc1ccc(N=Nc2ccc(OCC[N+](C)(C)C)cc2)cc1 ... 104
C#CC[C@@H]1C[C@]2(C)[C@H]3CC[C@@H]4[C@H]5[C@H](C(=C)C)CC[C@]5(C(=O)O)CC[C@@]4(C)[C@]3(C)CC[C@H]2C(C)(C)[C@H]1O ... 44

Query string: What does the data say about its growth? Entry: `COc1cccc(NC(=O)Nc2ccc(Oc3ncnc4[nH]c(C)c(C)c34)cc2)c1`
Result string: 83.5

Query string: What does the data say about its growth? Entry: `Oc1ccccc1-c1nc2c3ccccc3c3ccccc3c2o1`
Result string: 94.5

Query string: What does the data say about its growth? Entry: `O=C(/C(=C/c1ccc([N+](=O)[O-])cc1)SCc1ccc(Cl)cc1)c1ccc(F)cc1`
Result string: 51

Query string: What does the data say about its growth? Entry: `COc1ccc(/C=C/C(=O)c2ccc(NC(=O)CSc3nnc(-c4ccc(OC)c(OC)c4)n3-c3ccccc3)cc2)cc1`
Result string: 57.4

====

- Test system: COLO 205 colon
- assayComment: NCI-60 one-dose screen, 48 h
- particulars: 10 µM unless noted
Compounds without any hit were thinned out: in the full panel of roughly 83,000, 20% have a hit. Activity calls are given as the source filed them. How the source made its calls: active means growth percent below 10; inactive means the rest.
Give your call using only these classes: T = active, F = inactive

Field: example entries. Status: answers known.
C=C(C)[C@@H]1CC[C@]2(C(=O)N=C=S)CC[C@]3(C)[C@H](CC[C@@H]4[C@@]5(C)CCC(=O)C(C)(C)[C@@H]5CC[C@]43C)[C@@H]12 ... T
CCCn1cc(/C=N\N=C2\C(=O)Nc3ccc(C)cc32)c2ccccc21 ... T
COc1ccc(C(=O)c2cc(OC)c(C)c(OC)c2)cc1OC(=O)CCl ... F

Query string: Dear colleague, could you share the recorded outcome for CCCCCCCCCCCCCC1=NCC[N+]1(CCO)Cc1ccccc1 (configuration not stated) when you have a moment?
Result string: T

Query string: Dear colleague, could you share the recorded outcome for `NS(=O)(=O)c1ccc(-n2ncc(NC(=O)Nc3ccc(S(=O)(=O)Nc4nccs4)cc3)c2-c2ccccc2)cc1` when you have a moment?
Result string: F

Query string: Dear colleague, could you share the recorded outcome for `CCOC(=O)c1sc(/N=C2\NC(=O)/C(=C/c3ccc(N4CCN(C)CC4)cc3)S2)nc1C` when you have a moment?
Result string: F

====

- Tested on: HCC-2998 colon
- assayComment: NCI-60 one-dose screen, 48 h
- particulars: 10 µM unless noted
Compounds without any hit were thinned out: in the full panel of roughly 83,000, 20% have a hit. Active and inactive are the calls of the source. How the source made its calls: active means growth percent below 10; inactive means the rest.
Give your call using only these classes: Yes = active, No = inactive

C#Cc1cccc(Nc2ncnc3ccc(NC(=O)c4ccccc4)cc23)c1 ... No
C=C(C)[C@@H]1CC[C@]2(C(=O)N3CCN(C)CC3)CC[C@]3(C)[C@H](CC[C@@H]4[C@@]5(C)C/C(=C/c6ccco6)C(=O)C(C)(C)[C@@H]5CC[C@]43C)[C@@H]12 ... No
COc1ccc(NC(=O)Nc2ccc(Nc3nc(C)cc(Nc4ccc(C)cc4)n3)cc2)cc1 ... Yes
COc1cc(N=Nc2cc(S(=O)(=O)O)cc3cc(S(=O)(=O)O)cc(O)c23)c(C)cc1N=Nc1c(S(=O)(=O)O)cc2cc(Nc3ccccc3)ccc2c1O ... No

Query string: Dear colleague, could you share the recorded outcome for `CCCCn1c2cc(OCc3cn(-c4ccc(Cl)cc4)nn3)ccc2c2ccnc(C)c21` when you have a moment?
Result string: No

Query string: Dear colleague, could you share the recorded outcome for `COc1cc(/C=C/C(=O)/C=C/c2cc3ccc(Cl)cc3[nH]c2=O)ccc1O` when you have a moment?
Result string: No

Query string: Dear colleague, could you share the recorded outcome for O=C1NC(c2ccc(F)cc2)N=C2C(c3ccccc3)=NOC12 (configuration not stated) when you have a moment?
Result string: No

Query string: Dear colleague, could you share the recorded outcome for OCCNc1nc(NCCO)nc(Nc2ccc(C3=NN(c4cc(Cl)cc(Cl)c4)C(c4ccc(C(F)(F)F)cc4)C3)cc2)n1 (configuration not stated) when you have a moment?
Result string: No

Query string: Dear colleague, could you share the recorded outcome for `C=C1C(=O)O[C@H]2[C@H]1CC/C(COC(=O)CCCCC(=O)OC/C1=C/CC[C@@]3(C)O[C@H]3[C@H]3OC(=O)C(=C)[C@@H]3CC1)=C\CC[C@@]1(C)O[C@@H]21` when you have a moment?
Result string: No

Query string: Dear colleague, could you share the recorded outcome for N#CC1C(c2ccc(Cl)cc2)=Nc2c(c(-c3ccccc3)nn2-c2ccccc2)C12C(=O)Nc1ccc(Cl)cc12 (configuration not stated) when you have a moment?
Result string: No

Query string: Dear colleague, could you share the recorded outcome for `O=[N+]([O-])c1ccc(N=Nc2c(O)c(N=Nc3cc([N+](=O)[O-])cc([N+](=O)[O-])c3O)cc(N=Nc3cc(S(=O)(=O)O)cc4cc(S(=O)(=O)O)cc(O)c34)c2O)cc1` when you have a moment?
Result string: No

Query string: Dear colleague, could you share the recorded outcome for `O=C(Nc1cc(Nc2ncccc2-c2ncnc3nc[nH]c23)ccc1F)c1cc(C(F)(F)F)cc(C(F)(F)F)c1` when you have a moment?
Result string: Yes
